target: human GPR40 (Homo sapiens); construct: expressed in transfected cells; assay: Inositol Phosphate Turnover (IP1) Assay; type: cell-based; conditions: HEK cells stably expressing human GPR40; CisBio IP-One kit; 60 minutes at 37 degrees; read-out: Human IP1 EC50
Sequence (O14842 whole entry): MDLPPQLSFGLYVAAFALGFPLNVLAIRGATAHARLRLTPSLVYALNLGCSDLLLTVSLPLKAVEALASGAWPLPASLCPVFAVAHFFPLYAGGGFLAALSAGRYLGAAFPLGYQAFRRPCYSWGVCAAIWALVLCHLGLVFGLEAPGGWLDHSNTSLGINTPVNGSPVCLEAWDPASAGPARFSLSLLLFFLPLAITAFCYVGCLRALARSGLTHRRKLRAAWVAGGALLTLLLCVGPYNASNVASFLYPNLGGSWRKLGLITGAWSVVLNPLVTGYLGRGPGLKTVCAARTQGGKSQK
assay metric: pEC50
Note on pEC50: it is the negative log10 of concentration, concentration in mol/L.

molecule="C[C@H](C(=O)O)[C@H](c1ccc2c(c1)OC1(CC2)CCN(c2ccnc(C(F)(F)F)n2)CC1)C1CC1 [Example 56]" assay_metric=pEC50 recorded_number=6.07
molecule="C[C@H](C(=O)O)[C@H](c1ccc2c(c1)OC1(CC2)CCC(N(C)c2ncccc2C(F)(F)F)CC1)C1CC1 (single isomer, unassigned) [Example 63]" assay_metric=pEC50 recorded_number=8.53
molecule="C[C@H](C(=O)O)[C@H](c1ccc2c(c1)OC1(CCCN([C@@H](C)c3cc(C(F)(F)F)ccc3C(F)(F)F)CC1)CC2)C1CC1 (single isomer, unassigned) [Example 51]" assay_metric=pEC50 recorded_number=7.85

Sample C[C@H](C(=O)O)[C@H](c1ccc2c(c1)OC1(CC2)CCN(c2ccc3c(c2)c(C(F)(F)F)nn3C)CC1)C1CC1 [Example 38] — what was its pEC50?
6.30

Do the same for C[C@H](C(=O)O)[C@H](c1ccc2c(c1)OC1(CC2)[C@@H]2CC[C@H]1CN([C@@H](C)c1cc(F)ccc1C(F)(F)F)C2)C1CC1 (single isomer, unassigned) [Example 85] please
7.44

Do the same for C[C@H](C(=O)O)[C@H](c1ccc2c(c1)OC1(CC2)CCN(Cc2cc(C(F)(F)F)cc(Cl)c2F)CC1)C1CC1 [Example 24] please
7.95

Do the same for C[C@H](C(=O)O)[C@H](c1ccc2c(c1)OC1(CC2)CC2(CN([C@H](C)c3cc(C(F)(F)F)ccc3C(F)(F)F)C2)C1)C1CC1 [Example 126] please
8.07

Do the same for C[C@H](C(=O)O)[C@H](c1ccc2c(c1)OC1(CC2)CCN(Cc2cc(C(F)(F)F)ccc2F)CC1)C1CC1 [Example 27] please
7.31

====

target: human GPR40 (Homo sapiens); construct: expressed in transfected cells; experiment: Inositol Phosphate Turnover (IP1) Assay; assay type: cell-based; details: HEK cells stably expressing human GPR40; CisBio IP-One kit; 60 minutes at 37 degrees; read-out: Human IP1 EC50
Examples of molecules with documented pEC50 follow.
Note on pEC50: it is the negative log10 of concentration, concentration in mol/L.

Example entries and their recorded answers appear below.
molecule="COc1cc(N2CCC3(CCc4ccc([C@H](C5CC5)[C@H](C)C(=O)O)cc4O3)CC2)c(Cl)cn1 [Example 55]" experimental_system="human GPR40 (Homo sapiens)" assay_metric=pEC50 recorded_number=8.12
molecule="CC(c1cc(F)ccc1OC(F)(F)F)N1CCC2(CCc3ccc([C@H](C4CC4)[C@H](C)C(=O)O)c(F)c3O2)CC1 (stereo partly shown) [Example 2]" experimental_system="human GPR40 (Homo sapiens)" assay_metric=pEC50 recorded_number=8.48
molecule="C[C@H](C(=O)O)[C@H](c1ccc2c(c1)OC1(CCCN([C@H](C)c3cc(C(F)(F)F)ccc3C(F)(F)F)C1)CC2)C1CC1 (single isomer, unassigned) [Example 74]" experimental_system="human GPR40 (Homo sapiens)" assay_metric=pEC50 recorded_number=7.74

For the next question, use this molecule.
Sample CC(c1cc(C#N)ccc1OC(F)(F)F)N1CCC2(CCc3ccc([C@H](C4CC4)[C@H](C)C(=O)O)cc3O2)CC1 (stereo partly shown) [Example 123] — what was its pEC50?
7.52

====

Examples of molecules with documented pEC50 follow.
target: human GPR40 (Homo sapiens); construct: expressed in transfected cells; test: Inositol Phosphate Turnover (IP1) Assay; assay type: cell-based; conditions: HEK cells stably expressing human GPR40; CisBio IP-One kit; 60 minutes at 37 degrees; read-out: Human IP1 EC50
Note on pEC50: it is the negative log10 of concentration, concentration in mol/L.

Example entries and their recorded answers appear below.
molecule="CC(c1cc(Cl)cc(Cl)c1OC(F)F)N1CCC2(CCc3ccc([C@H](C4CC4)[C@H](C)C(=O)O)cc3O2)CC1 (single isomer, unassigned) [Example 80]" assay_metric=pEC50 recorded_number=8.49
molecule="C[C@H](NC1CC2(CCc3ccc([C@H](C4CC4)[C@H](C)C(=O)O)cc3O2)C1)c1cc(C(F)(F)F)ccc1C(F)(F)F (single isomer, unassigned) [Example 92]" assay_metric=pEC50 recorded_number=7.61
molecule="Cc1nocc1-c1ccc(OC(F)(F)F)c(C(C)N2CCC3(CCc4ccc([C@H](C5CC5)[C@H](C)C(=O)O)cc4O3)CC2)c1 (single isomer, unassigned) [Example 116]" assay_metric=pEC50 recorded_number=6.49
molecule="C[C@H](C(=O)O)[C@H](c1ccc2c(c1)OC1(CC2)[C@@H]2CC[C@H]1CN([C@H](C)c1cc(C(F)(F)F)ccc1C(F)(F)F)C2)C1CC1 (single isomer, unassigned) [Example 81]" assay_metric=pEC50 recorded_number=6.99
molecule="CC(c1cc(C2CC2)ccc1OC(F)(F)F)N1CCC2(CCc3ccc([C@H](C4CC4)[C@H](C)C(=O)O)cc3O2)CC1 (some centres unmarked)" assay_metric=pEC50 recorded_number=7.70
molecule="Cc1ccc(OC(F)(F)F)c(C(C)N2CCC3(CCc4ccc([C@H](C5CC5)[C@H](C)C(=O)O)cc4O3)CC2)c1 (mixture of isomers)" assay_metric=pEC50 recorded_number=7.67
molecule="COc1cc(C(C)N2CCC3(CCc4ccc([C@H](C5CC5)[C@H](C)C(=O)O)cc4O3)CC2)c(C(F)(F)F)cn1 (single isomer, unassigned) [Example 107]" assay_metric=pEC50 recorded_number=8.67
molecule=C[C@H](C(=O)O)[C@H](c1ccc2c(c1)OC1(CC2)CCN(c2ccccc2C(F)(F)F)CC1)C1CC1 assay_metric=pEC50 recorded_number=8.24

Sample CC(c1cc(C(F)(F)F)ccc1C1CC1)N1CCC2(CCc3ccc([C@H](C4CC4)[C@H](C)C(=O)O)cc3O2)CC1 (single isomer, unassigned) [Example 15] — what was its pEC50?
8.23

Do the same for CC(c1cc(F)cc(F)c1Cl)N1CCC2(CCc3ccc([C@H](C4CC4)[C@H](C)C(=O)O)cc3O2)CC1 (single isomer, unassigned) [Example 19] please
7.43

Do the same for CC(c1cc(Cl)ccc1OC(F)(F)F)N1CCC2(CCc3ccc([C@H](C4CC4)[C@H](C)C(=O)O)cc3O2)CC1 (some centres unmarked) [Example 134] please
8.85

====

target: human GPR40 (Homo sapiens); construct: expressed in transfected cells; assay: Inositol Phosphate Turnover (IP1) Assay; type: cell-based; settings: HEK cells stably expressing human GPR40; CisBio IP-One kit; 60 minutes at 37 degrees; read-out: Human IP1 EC50
Lab note - cut at 20 nM for EC50: YES if strictly below, NO if not.

The following compounds have reported results that may help.
compound="COc1ncc(C(F)(F)F)cc1C(C)N1CCC2(CCc3ccc([C@H](C4CC4)[C@H](C)C(=O)O)cc3O2)CC1 (single isomer, unassigned) [Example 102]" category=NO
compound="CC(c1cc(C(F)(F)F)ccc1C(F)(F)F)N(C)C1CC2(CCc3ccc([C@H](C4CC4)[C@H](C)C(=O)O)cc3O2)C1 (stereo partly drawn) [Example 99]" category=YES
compound="C[C@H](C(=O)O)[C@H](c1ccc2c(c1)OC1(CC2)CCN(S(=O)(=O)c2cc(Cl)ccc2Cl)CC1)C1CC1 [Example 46]" category=NO
compound="C[C@H](C(=O)O)[C@H](c1ccc2c(c1)OC1(CC2)CC(N(C)[C@@H](C)c2cc(C(F)(F)F)ccc2C(F)(F)F)C1)C1CC1 (stereo partly drawn) [Example 100]" category=YES
compound="C[C@H](C(=O)O)[C@H](c1ccc2c(c1)OC1(CC2)CC(N(C)[C@H](C)c2cc(C(F)(F)F)ccc2C(F)(F)F)C1)C1CC1 (stereo partly drawn) [Example 101]" category=YES

Consider now this further compound.
EC50 under 20 nM? Item: C[C@H](C(=O)O)[C@H](c1ccc2c(c1)OC1(CC2)CC(N(C)Cc2cc(C(F)(F)F)ccc2C(F)(F)F)C1)C1CC1 (single isomer, unassigned) [Example 97]
YES

====

molecular target: human GPR40 (Homo sapiens); construct: expressed in transfected cells; test: Inositol Phosphate Turnover (IP1) Assay; type: cell-based; conditions: HEK cells stably expressing human GPR40; CisBio IP-One kit; 60 minutes at 37 degrees; read-out: Human IP1 EC50
Examples of compounds with documented pEC50 follow.
Note on pEC50: it is the negative log10 of concentration, concentration in mol/L.

compound="C[C@H](C(=O)O)[C@H](c1ccc2c(c1F)OC1(CC2)CCN(Cc2cc(Cl)ccc2OC(F)(F)F)CC1)C1CC1 [Example 4]" recorded_number=8.09
compound="C[C@H](C(=O)O)[C@H](c1ccc2c(c1)OC1(CC2)CCN(c2cccc(C(F)(F)F)c2)CC1)C1CC1 [Example 41]" recorded_number=7.89

For the next question, use this compound.
Sample CC(c1cc(Cl)ccc1OC(F)F)N1CCC2(CCc3ccc([C@H](C4CC4)[C@H](C)C(=O)O)c(F)c3O2)CC1 (single isomer, unassigned) [Example 33] — what was its pEC50?
7.30

Each recorded value in this set is attributed to patent US10968232B2.
